Test system: Tg(fabp10a:DsRed) zebrafish larvae
Experiment: Lethality in zebrafish larvae: maximum non-toxic drug concentration/dose (MC/MD)
Assay type: in vivo, Zebrafish (Danio rerio)
Settings: pericardial injection at 3 dpf; less than 10% larval death at 6 dpf, or highest dose injectable without precipitation
observed property: MD: maximum non-toxic drug dose

{"chemical structure": "OC[C@H]1O[C@@](CO)(O[C@H]2O[C@H](CO)[C@@H](O)[C@H](O)[C@H]2O)[C@@H](O)[C@@H]1O", "value measured": "548 ^1 mg/kg"}
{"chemical structure": "CC(=O)Nc1ccc(O)cc1", "value measured": "604 ^1 mg/kg"}
{"chemical structure": "C[C@@H]1O[C@@H](OC[C@H]2O[C@@H](Oc3c(-c4ccc(O)c(O)c4)oc4cc(O)cc(O)c4c3=O)[C@H](O)[C@@H](O)[C@@H]2O)[C@H](O)[C@H](O)[C@H]1O", "value measured": "150 ^1 mg/kg"}

Now let's try a different one.
Task item: Which MD: maximum non-toxic drug dose is listed for CN(C)[C@@H]1C(O)=C(C(N)=O)C(=O)[C@@]2(O)C(O)=C3C(=O)c4c(O)cccc4[C@@](C)(O)[C@H]3C[C@@H]12 ?
Reply: 384 ^1 mg/kg

* * *

Tested on: Tg(fabp10a:DsRed) zebrafish larvae
Assay: Lethality in zebrafish larvae: maximum non-toxic drug concentration/dose (MC/MD)
Assay type: in vivo, Zebrafish (Danio rerio)
Details: yolk injection at 3 dpf; less than 10% larval death at 6 dpf, or highest dose injectable without precipitation
Reported MD: maximum non-toxic drug dose values are given for each entry in this list.

{"chemical structure": "CN(C)[C@@H]1C(O)=C(C(N)=O)C(=O)[C@@]2(O)C(O)=C3C(=O)c4c(O)cccc4[C@@](C)(O)[C@H]3C[C@@H]12", "value measured": "192 mg/kg"}
{"chemical structure": "CC(=O)Nc1ccc(O)cc1", "value measured": "604 ^1 mg/kg"}
{"chemical structure": "OC[C@H]1O[C@@](CO)(O[C@H]2O[C@H](CO)[C@@H](O)[C@H](O)[C@H]2O)[C@@H](O)[C@@H]1O", "value measured": "548 ^1 mg/kg"}

Task item: Which MD: maximum non-toxic drug dose is listed for C[C@@H]1O[C@@H](OC[C@H]2O[C@@H](Oc3c(-c4ccc(O)c(O)c4)oc4cc(O)cc(O)c4c3=O)[C@H](O)[C@@H](O)[C@@H]2O)[C@H](O)[C@H](O)[C@H]1O ?
Reply: 150 ^1 mg/kg
